Below, each entry is listed with its recorded z-score.
experiment: PSAC antagonists in infected red cells, primary screen, cell-based, P. falciparum Indochina, OD700, 2 h (AID 1155);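 further: lysis reports solute entry through the parasite surface anion channel PSAC; channel blockers reduce lysis of infected cells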; conditions: P. falciparum Indochina infected erythrocytes, osmotic lysis OD700; higher = more signal, called active from +8 up or from −8 down

compound | z-score
O=C1O[C@@H](c2ccccc2)[C@@H](c2ccccc2)N2[C@@H](c3ccccc3OCCO)[C@]3(C(=O)Nc4ccc(C#CCCO)cc43)[C@@H](C(=O)Nc3nc4ccccc4s3)[C@H]12 | 3.56
O=C1O[C@@H](c2ccccc2)[C@@H](c2ccccc2)N2[C@@H](c3ccccc3OCCO)[C@]3(C(=O)Nc4ccc(C#CC5=CCCCC5)cc43)[C@@H](C(=O)NC[C@H](O)c3ccccc3)[C@H]12 | 0.526
O=C1c2ccccc2[C@](Cc2ccccc2I)(C(=O)NCCN2CCOCC2)[C@H](c2ccc(CO)cc2)N1Cc1ccccc1 | 0.815
O=C(CCCCCCC(=O)Nc1ccccc1)N/N=C/c1ccccc1 | 10.9
O=C(O)[C@]1(Cc2ccccc2)N=C(c2ccc(OCCCO)cc2)O[C@@H]1c1ccccc1 | -0.125
C=C(/C=C/CNS(=O)(=O)c1ccc(C)cc1)[C@H](O)[C@H]1CCCN1S(=O)(=O)c1ccccc1[N+](=O)[O-] | 1.43
CN1C(=O)C2C=CC(C(O)c3c(F)cccc3Cl)N(Nc3ccccc3)C2C1=O (stereo unspecified) | 0.733
COc1ccc(NN2C(C(O)c3ccccn3)C=CC3C(=O)N(C4CCCCC4)C(=O)C32)cc1 (stereo unspecified) | 0.539
C=C(COC)/C(=C/C[C@@H](OC(=O)c1ccncc1)c1ccc(OCCO)cc1)c1cnc2ccccc2c1 | 5.56
O=C1NC(=O)C2C1C=CC(C(O)c1ccc3c(c1)OCO3)N2Nc1ccccn1 (stereo unspecified) | -0.665
C=CCN1C(=O)[C@@]2(O[C@@H](CCO)[C@H]([Si](C)(C)c3ccc(OC)cc3)[C@H]2C)c2cc(N3C(=O)c4ccccc4Oc4ccccc43)ccc21 | 8.39
C=CC[C@]1(C(=O)N(C)C)N=C(c2ccc(OCCCO)cc2)O[C@H]1c1ccccc1N=[N+]=[N-] | 28.4
C=CCN1Cc2ccccc2C[C@@]2(N=C(c3ccc(OCCCO)cc3)O[C@H]2c2ccccc2)C1=O | 23.6
[N-]=[N+]=Nc1ccccc1C[C@@]1(C(=O)O)N=C(c2ccc(OCCCO)cc2)O[C@@H]1c1ccccc1 | 1.37
CCCCN1CC=CC23O[C@@H]4C=CCOC(=O)[C@@H]4[C@H]2C(=O)N(C(C)CO)[C@@H]3C1=O (stereo partly specified) | -0.404
CN(C)C(=O)[C@]1(CCC(=O)OC(C)(C)C)N=C(c2ccc(OCCCO)cc2)O[C@@H]1c1ccccc1 | 6.32

---

experiment: small-molecule microarray binders of probe aDKK1, primary screen, biochemical, biotinylated probe, 635/667 nm fluorescence (AID 1099); details: higher = more signal;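 further: score merges 667nm spot fluorescence with signal to noise across triplicate slides; reference of the scale not given here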
Below, each entry is listed with its recorded composite z-score.

compound | composite z-score
O=C1OCC=C[C@H]2OC34C=CCN(Cn5nnc6ccccc65)C(=O)[C@H]3N(CCCCCCO)C(=O)[C@@H]4[C@@H]12 (some centres not stated) | 0.0374
COC(=O)C[C@H]1O[C@]2(C(=O)N(C)c3ccccc32)[C@@H](C)[C@@H]1[Si](C)(C)c1ccc(C)cc1 | -0.276
C=CC[C@@]12N=C(c3ccc(OCCCO)cc3)O[C@@H]1c1ccccc1N(CCS(=O)(=O)c1ccccc1)C2=O | -0.183
C[C@]1(C(=O)O)c2ccccc2C(=O)N(Cc2ccccc2)[C@H]1c1ccc(CO)cc1 | 0.44
O=C1O[C@@H](c2ccccc2)[C@@H](c2ccccc2)N2[C@@H](c3ccc(O)cc3)[C@]3(C(=O)Nc4ccc(C#CCCO)cc43)[C@@H](C(=O)NC[C@H](O)c3ccccc3)[C@H]12 | -0.301
C=CC[C@@]1(C(=O)O)N=C(c2ccc(OCCCO)cc2)O[C@@H]1c1ccccc1 | -0.2
COc1ccc([Si](C)(C)[C@@H]2[C@@H](CCn3cc([C@H](O)c4ccccc4)nn3)O[C@]3(C(=O)N(Cc4ccc(N5CCOC5=O)cc4)c4ccccc43)[C@H]2C)cc1 | -0.168
